Data provenance is ChEMBL document CHEMBL4004837.

Molecular target: CYP3A4 (Homo sapiens, UniProt P08684)
Sequence (P08684 whole entry): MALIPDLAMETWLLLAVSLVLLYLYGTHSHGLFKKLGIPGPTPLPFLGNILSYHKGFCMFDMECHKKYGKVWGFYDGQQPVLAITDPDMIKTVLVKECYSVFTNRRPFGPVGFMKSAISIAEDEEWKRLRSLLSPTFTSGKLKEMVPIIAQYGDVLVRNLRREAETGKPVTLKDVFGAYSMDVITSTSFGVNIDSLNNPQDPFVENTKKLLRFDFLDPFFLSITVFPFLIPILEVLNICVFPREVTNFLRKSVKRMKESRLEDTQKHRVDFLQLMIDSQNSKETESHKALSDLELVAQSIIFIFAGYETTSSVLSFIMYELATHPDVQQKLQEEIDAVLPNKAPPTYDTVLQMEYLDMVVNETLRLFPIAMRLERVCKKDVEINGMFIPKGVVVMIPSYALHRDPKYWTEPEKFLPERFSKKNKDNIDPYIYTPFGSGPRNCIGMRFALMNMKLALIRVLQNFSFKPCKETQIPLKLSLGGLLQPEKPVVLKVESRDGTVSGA
Assay: Inhibition of human microsomal CYP3A4 at 10 uM after 3 mins by single quad LC/MS analysis
Assay type: ADME
Conditions: microsomes
// no strictly below 3% in inhibition at 0.05 h, 10 µM; yes otherwise

molecule-smiles	label
CCCc1oc(CCC(=O)O)c(C(=O)O)c1CCC	no
CCc1oc(CCC(=O)O)c(C(=O)O)c1CC	no
COC(=O)CCc1oc(C)c(C)c1C(=O)OC	yes
CCCc1oc(CCCO)c(C(=O)O)c1C	no
CCCCCc1oc(CCC(=O)OC)c(C(=O)OC)c1C	yes
CCCc1oc(CCCO)c(C(=O)OC)c1C	no
CCCc1oc(CCC(=O)O)c(C(=O)O)c1C	no
CCCc1oc(CCC)c(C(=O)O)c1C	yes
CCCc1oc(CCC(C)=O)c(C(C)=O)c1C	yes
COC(=O)CCc1oc2c(c1C(=O)OC)CCCC2	yes
CCCc1oc(C(=O)O)c(C)c1C	no
